Where do these numbers come from? They come from ChEMBL document CHEMBL1772985.

Organism: Homo sapiens
Assay: Selectivity ratio Ki for human dopamine D2L receptor to Ki for human dopamine D3 receptor
measured parameter: Ratio Ki
Number only, no unit.

Field request: Ratio Ki | item: COc1ccccc1N1CCN(CC(F)CCNC(=O)c2cc3ccccc3s2)CC1 (stereo not given)
63

Could you share which Ratio Ki value was measured for COc1ccc2oc(C(=O)NCCC(F)CN3CCN(c4cccc(Cl)c4Cl)CC3)cc2c1 (stereo not given) ?
35

I would be grateful if you could share the reported Ratio Ki for COc1ccc2oc(C(=O)NCCC(F)CN3CCN(c4ccccc4OC)CC3)cc2c1 (stereo not given) .
20

Recorded Ratio Ki of COc1ccccc1N1CCN(CC(F)CCNC(=O)c2cc3ccccc3[nH]2)CC1 (stereo not given) , please.
44

May I ask what Ratio Ki has been recorded for CCCN(CCCCN1CCN(c2ccccc2OC)CC1)Cc1ccc2c(c1)Cc1ccccc1-2 ?
3

* * *

measured parameter: Ki (nM)
Express the result in nM but write the number alone.

Query for D(3) dopamine receptor (Homo sapiens, UniProt P35462): what Ki does the record show for COc1ccccc1N1CCN(CC(F)CCNC(=O)c2cc3ccccc3[nH]2)CC1 (configuration not stated) ?
9.5

Report Ki for O=C(NCCC(F)CN1CCN(c2cccc(Cl)c2Cl)CC1)c1cc2ccccc2[nH]1 (configuration not stated) tested on D(3) dopamine receptor (Homo sapiens, UniProt P35462).
Sequence (P35462 whole entry): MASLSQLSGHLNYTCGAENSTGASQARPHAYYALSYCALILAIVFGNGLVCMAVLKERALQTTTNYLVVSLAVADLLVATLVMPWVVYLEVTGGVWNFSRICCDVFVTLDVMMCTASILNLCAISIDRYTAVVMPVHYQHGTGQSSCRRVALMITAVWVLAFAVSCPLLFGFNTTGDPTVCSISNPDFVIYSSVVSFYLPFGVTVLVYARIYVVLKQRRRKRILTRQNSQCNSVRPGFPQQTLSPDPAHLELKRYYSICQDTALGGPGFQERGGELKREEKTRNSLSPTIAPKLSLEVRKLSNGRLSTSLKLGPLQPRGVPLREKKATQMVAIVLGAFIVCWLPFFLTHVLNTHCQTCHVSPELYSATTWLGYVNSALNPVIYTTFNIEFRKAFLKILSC
4

Could you share what Ki was measured for CCCN(CCCCN1CCN(c2cccc(Cl)c2Cl)CC1)Cc1ccc2ccccc2c1 , tested on D(3) dopamine receptor (Homo sapiens, UniProt P35462)?
104

Which Ki is reported with D(3) dopamine receptor (Homo sapiens, UniProt P35462) for this entry: CN(CCC(O)CN1CCN(c2cccc(Cl)c2Cl)CC1)Cc1ccc2c(c1)Cc1ccccc1-2 (configuration not stated) ?
162

Requested read-out Ki, target or system D(3) dopamine receptor (Homo sapiens, UniProt P35462), entry COc1ccc2[nH]c(C(=O)NCCC(F)CN3CCN(c4ccccc4OC)CC3)cc2c1 (configuration not stated)
4.6

Lab request: please report Ki under test system D(3) dopamine receptor (Homo sapiens, UniProt P35462) for CCCN(CCCCN1CCN(c2ccccc2OC)CC1)Cc1ccc2ccccc2c1
80.8

Short answer please: Ki, D(3) dopamine receptor (Homo sapiens, UniProt P35462), entry COc1ccccc1N1CCN(CC(F)CCNC(=O)c2ccc(-c3ccccn3)cc2)CC1 (configuration not stated)
20.5

* * *

Species: Homo sapiens
Assay: Selectivity ratio Ki for human dopamine D2L receptor to Ki for human dopamine D3 receptor
Each record's class is read off its Ratio Ki using these ranges: zone 1 (below 10), zone 2 (10 to below 30), zone 3 (30 or more)

# classify by Ratio Ki band: COc1ccc2[nH]c(C(=O)NCCC(F)CN3CCN(c4ccccc4OC)CC3)cc2c1 (stereo not given)
zone 3

Which category does the recorded Ratio Ki put COc1ccccc1N1CCN(CC(F)CCNC(=O)c2cc3ccccc3o2)CC1 (stereo not given) in?
zone 2

// return the class label for CCCN(CCCCN1CCN(c2cccc(Cl)c2Cl)CC1)Cc1ccc2c(c1)Cc1ccccc1-2
zone 1

Which bin should I file O=C(NCCC(F)CN1CCN(c2cccc(Cl)c2Cl)CC1)c1cc2ccccc2s1 (stereo not given) under?
zone 3

Hi, small favor: classify O=C(NCCC(F)CN1CCN(c2cccc(Cl)c2Cl)CC1)c1ccc2ccccc2c1 (stereo not given) by its Ratio Ki when you get a moment.
zone 3

Kindly state the category for this compound: COc1ccccc1N1CCN(CC(F)CCNC(=O)c2ccc(-c3ccccn3)cc2)CC1 (stereo not given)
zone 2

Class (by measured Ratio Ki) for CCCN(CCCCN1CCN(c2cccc(Cl)c2Cl)CC1)Cc1ccc2ccccc2c1
zone 1

Sort into band: OC(CCNCc1ccc2c(c1)Cc1ccccc1-2)CN1CCN(c2cccc(Cl)c2Cl)CC1 (stereo not given)
zone 2

# bin lookup: classify O=C(NCCC(F)CN1CCN(c2cccc(Cl)c2Cl)CC1)c1cc2ccccc2[nH]1 (stereo not given) by its Ratio Ki
zone 3

Where would FC(CCNCc1ccc2c(c1)Cc1ccccc1-2)CN1CCN(c2cccc(Cl)c2Cl)CC1 (stereo not given) land among the classes by reported Ratio Ki?
zone 2
